Values were extracted from the RNAGym collection of RNA variant scans (doi:10.1073/pnas.2313332121).

B1: TPR t1 (parent)
chain: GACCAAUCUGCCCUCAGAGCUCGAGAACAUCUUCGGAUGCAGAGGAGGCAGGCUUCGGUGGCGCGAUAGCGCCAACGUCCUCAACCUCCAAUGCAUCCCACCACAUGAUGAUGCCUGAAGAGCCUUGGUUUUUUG

variants of: B1; experiment: polymerase ribozyme fitness, log enrichment relative to wild type (log ratio); higher = more active; in vitro selection for triplet polymerase activity
polymerase ribozyme fitness (log ratio) reference

Exercise: Consider the variant shown here: C11G C99U What is its recorded polymerase ribozyme fitness (log ratio)?
Solution: -2.71

Exercise: Ok, now G52U U59C
Solution: -0.547

Exercise: Ok, now C22G U106G
Solution: -3.47

Exercise: Ok, now C11A G45U A84G C101U G122A
Solution: -2.1

Exercise: Ok, now G10C C15U
Solution: -0.996

Exercise: Ok, now C20G U33G C34G G44A A46U C98G G110C G113C
Solution: -6.24

Exercise: Ok, now C80A A84U
Solution: -3.74

Exercise: Ok, now C34G C115G
Solution: -7.42

Exercise: Ok, now G10U C62U
Solution: -0.108

Exercise: Ok, now C34A A46U A68U G71C C124G
Solution: -7.38

Exercise: Ok, now A18U C98U A111C
Solution: -4.18

Exercise: Ok, now C20G C40U G42C G48U U109A
Solution: -4.15

Exercise: Ok, now U7C C8U C34G
Solution: -6.08

Exercise: Ok, now C3A C4A G51A G60A A84G G120U
Solution: -3.02

Exercise: Ok, now C49G C62G C114A G117C
Solution: -7.8

Exercise: Ok, now C62U U92A
Solution: -3.44

Exercise: Ok, now U9G G48A U81A C89A G93U C115G C123G
Solution: -6.43

Exercise: Ok, now A37U G48U G60A C82G A121U
Solution: 1.39

Exercise: Ok, now C11A C13G C62G
Solution: -3.87

Exercise: Ok, now A6U G48A
Solution: -0.413

Exercise: Ok, now G36U C99U C124A
Solution: -3.03

Exercise: Ok, now G69C A90C A91G A108C U112A
Solution: -6.22
